# Tested on: 299254-011-R-J1-PDC complex spheroids viability
# assay: Anticancer human tumor 299254-011-R-J1-PDC patient-derived melanoma cell line growth inhibition [GQUAD]; active = viability on the fitted dose curve at most 10% of control; inactive = the rest
# details: second compound 3.16 µM; first compound 1 µM
Outcome field: choose from 1 = active, -1 = inactive

Solved entries (count: 10):
CC(C)n1c(=O)n(C)c2cnc3cc(F)c(-c4ccc(OCCCN5CCCCC5)nc4)cc3c21 + CN(C)c1ccc(Nc2c3ccc(NC(=O)CCN4CCCC4)cc3nc3cc(NC(=O)CCN4CCCC4)ccc23)cc1; -1
CC(=O)O[C@H]1C(=O)[C@@]2(C)[C@H]([C@H](OC(=O)c3ccccc3)[C@]3(O)C[C@H](OC(=O)[C@H](O)[C@@H](NC(=O)c4ccccc4)c4ccccc4)C(C)=C1C3(C)C)[C@]1(OC(C)=O)CO[C@@H]1C[C@@H]2O + Cc1cnc(CNC(=O)c2c(=O)c3ccc(N4CCCN(C)CC4)nc3n3c2sc2ccccc23)cn1; -1
COc1cccc2c1C(=O)c1c(O)c3c(c(O)c1C2=O)CC(O)(C(=O)CO)CC3OC1CC(N)C(O)C(C)O1 (stereo not drawn) + CN(C)c1ccc(Nc2c3ccc(NC(=O)CCN4CCCC4)cc3nc3cc(NC(=O)CCN4CCCC4)ccc23)cc1; -1
C=CCn1c(=O)c2cnc(Nc3ccc(N4CCN(C)CC4)cc3)nc2n1-c1cccc(C(C)(C)O)n1 + CN(C)c1ccc(Nc2c3ccc(NC(=O)CCN4CCCC4)cc3nc3cc(NC(=O)CCN4CCCC4)ccc23)cc1; -1
C=CCn1c(=O)c2cnc(Nc3ccc(N4CCN(C)CC4)cc3)nc2n1-c1cccc(C(C)(C)O)n1 + Cc1[nH]c2ccc(F)cc2c1-c1nc2c3cccnc3c3ncccc3c2[nH]1; -1
O=C(NO)c1cnc(N2CCN(S(=O)(=O)c3ccc4ccccc4c3)CC2)nc1 + Cc1[nH]c2ccc(F)cc2c1-c1nc2c3cccnc3c3ncccc3c2[nH]1; -1
CC1COCCN1c1cc(C2(O)CC3CCC(C2)O3)c2cnn(-c3ccn[nH]3)c2n1 (stereo not drawn) + Cc1[nH]c2ccc(F)cc2c1-c1nc2c3cccnc3c3ncccc3c2[nH]1; -1
C=CC(=O)N1CCN(c2nc(=O)n(-c3c(C)ccnc3C(C)C)c3nc(-c4c(O)cccc4F)c(F)cc23)C(C)C1 (stereo not drawn) + CN(C)c1ccc(Nc2c3ccc(NC(=O)CCN4CCCC4)cc3nc3cc(NC(=O)CCN4CCCC4)ccc23)cc1; -1
O=C(NO)c1cnc(N2CCN(S(=O)(=O)c3ccc4ccccc4c3)CC2)nc1 + CN(C)c1ccc(Nc2c3ccc(NC(=O)CCN4CCCC4)cc3nc3cc(NC(=O)CCN4CCCC4)ccc23)cc1; 1
CC(C)n1c(=O)n(C)c2cnc3cc(F)c(-c4ccc(OCCCN5CCCCC5)nc4)cc3c21 + Cc1cnc(CNC(=O)c2c(=O)c3ccc(N4CCCN(C)CC4)nc3n3c2sc2ccccc23)cn1; -1

Exam item: What classification did COc1ccc([C@@H](O)c2cc(-c3ncnc4cc(N5CCOCC5)ccc34)c(F)cc2Cl)nn1 + Cc1[nH]c2ccc(F)cc2c1-c1nc2c3cccnc3c3ncccc3c2[nH]1 end up with in this test?
Marked response: -1

====

# System: 299254-011-R-J1-PDC complex spheroids viability
# assay: Anticancer human tumor 299254-011-R-J1-PDC cell line growth inhibition [GQUAD];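 also: spheroids exposed to the agents for seven days before readout; percent viability relative to DMSO vehicle control wells = 100%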
# details: second compound 10 µM; first compound 1 µM; hits give low values
Measured viability, T/C of individual entries
Numeric answer only, unit % assumed.

Examples with answers:
CC(C)(O)C1CCC(Nc2ccc3ncc(-c4cccc(C(F)(F)F)c4)n3n2)CC1 (stereo not given) + CN(C)c1ccc(Nc2c3ccc(NC(=O)CCN4CCCC4)cc3nc3cc(NC(=O)CCN4CCCC4)ccc23)cc1; 111
CC1COCCN1c1cc(C2(O)CC3CCC(C2)O3)c2cnn(-c3ccn[nH]3)c2n1 (stereo not given) + Cc1cnc(CNC(=O)c2c(=O)c3ccc(N4CCCN(C)CC4)nc3n3c2sc2ccccc23)cn1; 0.17
CC(C)(O)C1CCC(Nc2ccc3ncc(-c4cccc(C(F)(F)F)c4)n3n2)CC1 (stereo not given) + Cc1cnc(CNC(=O)c2c(=O)c3ccc(N4CCCN(C)CC4)nc3n3c2sc2ccccc23)cn1; 0.33
COc1ncnc(C2CC2)c1-c1ncc2cnn(Cc3ccc(-c4nc(C(F)(F)F)cn4C(C)C)cc3)c2n1 + CN(C)c1ccc(Nc2c3ccc(NC(=O)CCN4CCCC4)cc3nc3cc(NC(=O)CCN4CCCC4)ccc23)cc1; 79.4

Exam item: If you can, please state the reported viability, T/C value of Nc1ccn(C2OC(CO)C(O)C2(F)F)c(=O)n1 (stereo not given) + CN(C)c1ccc(Nc2c3ccc(NC(=O)CCN4CCCC4)cc3nc3cc(NC(=O)CCN4CCCC4)ccc23)cc1 .
Marked response: 64.3

====

# Test system: 299254-011-R-J1-PDC complex spheroids viability
# assay: Anticancer human tumor 299254-011-R-J1-PDC cell line growth inhibition [GQUAD];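 also: spheroids exposed to the agents for seven days before readout; percent viability relative to DMSO vehicle control wells = 100%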
# details: second compound 0.1 µM; first compound 0.00316 µM; hits give low values
Items are presented alongside their recorded viability, T/C.
Give your result in % as a bare value.

Cc1[nH]c2ccccc2c1CCNCc1ccc(/C=C/C(=O)NO)cc1 + Cc1cnc(CNC(=O)c2c(=O)c3ccc(N4CCCN(C)CC4)nc3n3c2sc2ccccc23)cn1; 106

Exam item: Which viability, T/C is listed for Cc1[nH]c2ccccc2c1CCNCc1ccc(/C=C/C(=O)NO)cc1 + CN(C)c1ccc(Nc2c3ccc(NC(=O)CCN4CCCC4)cc3nc3cc(NC(=O)CCN4CCCC4)ccc23)cc1 ?
Marked response: 102

Exam item: Bench note: what viability, T/C did Cn1ncnc1[C@H]1c2n[nH]c(=O)c3cc(F)cc(c23)N[C@@H]1c1ccc(F)cc1 + Cc1cnc(CNC(=O)c2c(=O)c3ccc(N4CCCN(C)CC4)nc3n3c2sc2ccccc23)cn1 show?
Marked response: 96.2

Exam item: What value of measured viability, T/C is listed for CCc1c2c(nc3ccc(O)cc13)-c1cc3c(c(=O)n1C2)COC(=O)[C@]3(O)CC + Cc1[nH]c2ccc(F)cc2c1-c1nc2c3cccnc3c3ncccc3c2[nH]1 ?
Marked response: 117

Exam item: Consider the compound shown here: CCc1c2c(nc3ccc(O)cc13)-c1cc3c(c(=O)n1C2)COC(=O)[C@]3(O)CC + CN(C)c1ccc(Nc2c3ccc(NC(=O)CCN4CCCC4)cc3nc3cc(NC(=O)CCN4CCCC4)ccc23)cc1 What is its recorded viability, T/C?
Marked response: 98.5

Exam item: Report viability, T/C for Cc1[nH]c2ccccc2c1CCNCc1ccc(/C=C/C(=O)NO)cc1 + Cc1[nH]c2ccc(F)cc2c1-c1nc2c3cccnc3c3ncccc3c2[nH]1 please.
Marked response: 119

Exam item: GET /values?readout=viability, T/C&item= Cn1ncnc1[C@H]1c2n[nH]c(=O)c3cc(F)cc(c23)N[C@@H]1c1ccc(F)cc1 + CN(C)c1ccc(Nc2c3ccc(NC(=O)CCN4CCCC4)cc3nc3cc(NC(=O)CCN4CCCC4)ccc23)cc1
Marked response: 109

====

# Test system: 299254-011-R-J1-PDC complex spheroids viability
# assay: Anticancer human tumor 299254-011-R-J1-PDC cell line growth inhibition [GQUAD];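 also: spheroids exposed to the agents for seven days before readout; percent viability relative to DMSO vehicle control wells = 100%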
# details: second compound 10 µM; first compound 0.1 µM; hits give low values
viability, T/C less than 50% is Yes; viability, T/C greater than or equal to 50% is No.

Answered cases to consult:
CC1COCCN1c1cc(C2(S(C)(=N)=O)CC2)nc(-c2ccnc3[nH]ccc23)n1 (stereo not given) + Cc1cnc(CNC(=O)c2c(=O)c3ccc(N4CCCN(C)CC4)nc3n3c2sc2ccccc23)cn1; Yes
O=c1[nH]cc(F)c(=O)[nH]1 + CN(C)c1ccc(Nc2c3ccc(NC(=O)CCN4CCCC4)cc3nc3cc(NC(=O)CCN4CCCC4)ccc23)cc1; No
C#Cc1c(F)ccc2cc(O)cc(-c3ncc4c(N5CC6CCC(C5)N6)nc(OCC56CCCN5CC(F)C6)nc4c3F)c12 (stereo not given) + CN(C)c1ccc(Nc2c3ccc(NC(=O)CCN4CCCC4)cc3nc3cc(NC(=O)CCN4CCCC4)ccc23)cc1; No
O=C(NO)c1cnc(N2CCN(S(=O)(=O)c3ccc4ccccc4c3)CC2)nc1 + Cc1cnc(CNC(=O)c2c(=O)c3ccc(N4CCCN(C)CC4)nc3n3c2sc2ccccc23)cn1; Yes
C#Cc1c(F)ccc2cc(O)cc(-c3ncc4c(N5CC6CCC(C5)N6)nc(OCC56CCCN5CC(F)C6)nc4c3F)c12 (stereo not given) + Cc1cnc(CNC(=O)c2c(=O)c3ccc(N4CCCN(C)CC4)nc3n3c2sc2ccccc23)cn1; Yes
C=CCn1c(=O)c2cnc(Nc3ccc(N4CCN(C)CC4)cc3)nc2n1-c1cccc(C(C)(C)O)n1 + CN(C)c1ccc(Nc2c3ccc(NC(=O)CCN4CCCC4)cc3nc3cc(NC(=O)CCN4CCCC4)ccc23)cc1; No
CC(=O)O[C@H]1C(=O)[C@@]2(C)[C@H]([C@H](OC(=O)c3ccccc3)[C@]3(O)C[C@H](OC(=O)[C@H](O)[C@@H](NC(=O)c4ccccc4)c4ccccc4)C(C)=C1C3(C)C)[C@]1(OC(C)=O)CO[C@@H]1C[C@@H]2O + Cc1cnc(CNC(=O)c2c(=O)c3ccc(N4CCCN(C)CC4)nc3n3c2sc2ccccc23)cn1; Yes
CC1COCCN1c1cc(C2(O)CC3CCC(C2)O3)c2cnn(-c3ccn[nH]3)c2n1 (stereo not given) + Cc1cnc(CNC(=O)c2c(=O)c3ccc(N4CCCN(C)CC4)nc3n3c2sc2ccccc23)cn1; Yes

Exam item: Identify whether the compound CC(=O)O[C@H]1C(=O)[C@@]2(C)[C@H]([C@H](OC(=O)c3ccccc3)[C@]3(O)C[C@H](OC(=O)[C@H](O)[C@@H](NC(=O)c4ccccc4)c4ccccc4)C(C)=C1C3(C)C)[C@]1(OC(C)=O)CO[C@@H]1C[C@@H]2O + Cc1[nH]c2ccc(F)cc2c1-c1nc2c3cccnc3c3ncccc3c2[nH]1 records viability, T/C below 50%.
Marked response: No

Exam item: Field: below-cutoff. Rule: recorded viability, T/C strictly less than 50%. Subject: C=CC(=O)N1CCN(c2nc(=O)n(-c3c(C)ccnc3C(C)C)c3nc(-c4c(O)cccc4F)c(F)cc23)C(C)C1 (stereo not given) + Cc1[nH]c2ccc(F)cc2c1-c1nc2c3cccnc3c3ncccc3c2[nH]1
Marked response: No

Exam item: Decide: viability, T/C of O=C(c1cc(Cc2n[nH]c(=O)c3ccccc23)ccc1F)N1CCN(C(=O)C2CC2)CC1 + Cc1cnc(CNC(=O)c2c(=O)c3ccc(N4CCCN(C)CC4)nc3n3c2sc2ccccc23)cn1 strictly below 50%?
Marked response: Yes

Exam item: Just wondering, is viability, T/C of O=C(NO)c1cnc(N2CCN(S(=O)(=O)c3ccc4ccccc4c3)CC2)nc1 + CN(C)c1ccc(Nc2c3ccc(NC(=O)CCN4CCCC4)cc3nc3cc(NC(=O)CCN4CCCC4)ccc23)cc1 below 50%?
Marked response: No

Exam item: Is 50% strictly greater than the compound's reported viability, T/C? compound: CC1COCCN1c1cc(-c2ccnn2C)c2ccnc(-c3ccn[nH]3)c2n1 (stereo not given) + Cc1[nH]c2ccc(F)cc2c1-c1nc2c3cccnc3c3ncccc3c2[nH]1
Marked response: Yes

Exam item: Is viability, T/C of COc1ncnc(C2CC2)c1-c1ncc2cnn(Cc3ccc(-c4nc(C(F)(F)F)cn4C(C)C)cc3)c2n1 + CN(C)c1ccc(Nc2c3ccc(NC(=O)CCN4CCCC4)cc3nc3cc(NC(=O)CCN4CCCC4)ccc23)cc1 strictly below 50%?
Marked response: No
